# Type: in vivo, human
# setupConditions: human, plasma, oral, 60 mg
assayMetric: tmax (h)

INSERT INTO measurements (compound, datavalue) VALUES
  ('CC(C)[C@@H](CS(=O)(=O)C(C)C)N1C(=O)[C@@](C)(CC(=O)O)C[C@H](c2cccc(Cl)c2)[C@H]1c1ccc(Cl)cc1 [Navtemadlin]', 2.01);
